These measurements were taken from patent EP4737448A1.

Items are presented alongside their recorded IC50.
Target: SARM1 (Homo sapiens, UniProt Q6SZW1)
Construct: the inventor produces full-length SARM1 for NADase activity assays and for screening; His (C); digitonin lysate supernatant, not purified further)
Sequence (Q6SZW1 28-724): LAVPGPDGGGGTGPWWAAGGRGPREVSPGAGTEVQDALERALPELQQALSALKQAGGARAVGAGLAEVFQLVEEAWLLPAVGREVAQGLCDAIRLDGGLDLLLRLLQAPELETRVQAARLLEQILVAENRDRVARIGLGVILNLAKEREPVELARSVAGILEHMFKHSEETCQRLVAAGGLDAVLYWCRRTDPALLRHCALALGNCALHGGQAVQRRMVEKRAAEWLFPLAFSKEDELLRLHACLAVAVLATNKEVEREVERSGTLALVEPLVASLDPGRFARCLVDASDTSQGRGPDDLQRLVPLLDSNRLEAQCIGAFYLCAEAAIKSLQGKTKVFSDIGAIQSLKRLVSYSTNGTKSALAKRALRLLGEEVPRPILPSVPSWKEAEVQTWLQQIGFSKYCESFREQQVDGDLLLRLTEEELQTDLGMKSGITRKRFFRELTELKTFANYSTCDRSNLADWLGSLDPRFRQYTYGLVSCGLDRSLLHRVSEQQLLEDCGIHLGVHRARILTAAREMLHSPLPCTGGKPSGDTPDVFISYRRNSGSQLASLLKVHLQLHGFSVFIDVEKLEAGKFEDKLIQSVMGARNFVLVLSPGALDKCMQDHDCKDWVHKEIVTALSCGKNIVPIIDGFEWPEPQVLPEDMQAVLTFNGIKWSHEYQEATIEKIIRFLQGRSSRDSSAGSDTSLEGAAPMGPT
Assay: In vitro biochemical assay for inhibiting SARM1 enzymatic activity (PC6 fluorescence, NAD substrate, NMN activator)
Conditions: 0.05 µg/mL SARM1, 50 µM NAD, 50 µM PC6, 50 µM NMN, 10 min pre-incubation, 30 min at room temperature

Solved cases below.
MOLECULE | IC50
O=C1C(Cc2ccc(Cl)c(F)c2)CCN1c1ccc(-c2ccncc2)nn1 (stereo not drawn) [Compound 62] | < 1 µM
N#Cc1ccc(CC2CCN(c3ccc(-c4ccncc4)cc3)C2=O)cc1 (stereo not drawn) [Compound 19] | 1 to 10 µM

Now examine the next entry.
Query string: Request the reported IC50 associated with CC(=O)c1ccc(CC2CCN(c3ccc(-c4ccncc4)cc3)C2=O)cc1 (stereo not drawn) [Compound 91]
Result string: 10 to 30 µM

* * *

Items are presented alongside their recorded IC50.
Biological target: SARM1 (Homo sapiens)
Construct: the inventor produces full-length SARM1 for NADase activity assays and for screening; His (C); digitonin lysate supernatant, not purified further)
Assay: In vitro biochemical assay for inhibiting SARM1 enzymatic activity (PC6 fluorescence, NAD substrate, NMN activator)
Conditions: 0.05 µg/mL SARM1, 50 µM NAD, 50 µM PC6, 50 µM NMN, 10 min pre-incubation, 30 min at room temperature

Solved cases below.
MOLECULE | IC50
CC(c1ccc(Cl)cc1)C1CCN(c2ccc(-c3ccncc3)cc2)C1=O (centres unmarked) | 10 to 30 µM
COC(=O)c1ccc(CC2CCN(c3ccc(-c4ccncc4)cc3)C2=O)cc1 (centres unmarked) | 1 to 10 µM
O=C1CC(Cc2ccc(Cl)cc2)C(=O)N1c1ccc(-c2ccncc2)cc1 (centres unmarked) | 1 to 10 µM
O=C1/C(=C/c2ccc(Cl)cc2)CCN1c1ccc(-c2ccncc2)nn1 | 10 to 30 µM
O=C1C(Cc2ccc(F)c(F)c2)CCN1c1ccc(-c2ccncc2)nn1 (centres unmarked) | < 1 µM
O=C1C(Cc2ccc(Cl)nc2)CCN1c1ccc(-c2ccncc2)nn1 (centres unmarked) | < 1 µM
O=C1C(Cc2ccc(Cl)cc2)=CCN1c1ccc(-c2ccncc2)cc1 | 1 to 10 µM

Now examine the next entry.
Query string: Request the reported IC50 associated with N#Cc1ccc(CC2CCN(c3ccc(-c4ccncc4)nn3)C2=O)cc1 (centres unmarked)
Result string: < 1 µM
